Values were extracted from paper PMC10333884.

pKd: −log10 of the molar value. Residues, ends and D or L forms follow the SMILES beside them.
Here's a batch of compounds along with measured pKd for MAP1LC3B (Homo sapiens).

# compound, pKd
data = [
    ("CC(=O)N[C@@H](CC(C)C)C(=O)N[C@@H](CCC(=O)O)C(=O)N[C@@H](CC(=O)O)C(=O)N[C@@H](CC(=O)O)C(=O)N[C@@H](CCC(=O)O)C(=O)N[C@@H](CCC(N)=O)C(=O)N[C@@H](Cc1ccccc1)C(=O)N[C@H](C(=O)N[C@@H](COP(=O)(O)O)C(=O)N[C@@H](CC(C)C)C(=O)N[C@@H](Cc1ccc(O)cc1)C(=O)NCC(=O)N[C@H](C(=O)N[C@@H](CCC(=O)O)C(=O)N[C@@H](CCC(=O)O)C(=O)N[C@@H](Cc1ccc(O)cc1)C(N)=O)[C@@H](C)O)C(C)C", 5.89),
    ("CC(=O)N[C@@H](CCC(N)=O)C(=O)N[C@@H](CC(N)=O)C(=O)N[C@@H](CC(C)C)C(=O)N[C@@H](CO)C(=O)N[C@@H](CCCNC(=N)N)C(=O)N[C@@H](CCC(=O)O)C(=O)N[C@@H](Cc1c[nH]c2ccccc12)C(=O)N[C@@H](Cc1c[nH]cn1)C(=O)N[C@@H](CC(=O)O)C(=O)N[C@H](C(=O)N[C@@H](CCC(N)=O)C(=O)N[C@H](C(=O)N[C@@H](CO)C(=O)N[C@@H](CO)C(=O)N[C@@H](C)C(=O)N[C@@H](Cc1ccc(O)cc1)C(N)=O)C(C)C)C(C)C [TPD52L2_91–106 E] (Ac-QNLSREWHDVQVSSAY-NH2)", 3.65),
]

----------
# Max confidence per record follows
# System: bait protein domains
# protocol summary: Phosphomimetic ProP-PD selection against the PM_HD2 library (NGS counts, confidence level, PES), any bait
# Assay type: binding, human
# Parameters: scale not given here
# condition summary: bait ABL1_SH3__P00519_60_121; hit given as wt version

# record sequence, assay target, Max confidence
records = [
    ("SPPRPPPPPPLLGTVS", "bait protein domains", 3),
    ("PPFSPPPSPRGEVERG", "bait protein domains", 3),
    ("DAPPHYPPPSTAAASP", "bait protein domains", 3),
    ("LTYPQYSPPQPRPGVI", "bait protein domains", 4),
    ("PATSPPKTPPQLEALQ", "bait protein domains", 3),
]

----------
// values below are reported pKd
# assay target: KPNA4 ARM minor (Homo sapiens, UniProt O00629)
# Construct: 60-487; GST (cleaved yes); made in house; host or cells: Escherichia coli BL21-Gold(DE3)
# Sequence (O00629 60-487): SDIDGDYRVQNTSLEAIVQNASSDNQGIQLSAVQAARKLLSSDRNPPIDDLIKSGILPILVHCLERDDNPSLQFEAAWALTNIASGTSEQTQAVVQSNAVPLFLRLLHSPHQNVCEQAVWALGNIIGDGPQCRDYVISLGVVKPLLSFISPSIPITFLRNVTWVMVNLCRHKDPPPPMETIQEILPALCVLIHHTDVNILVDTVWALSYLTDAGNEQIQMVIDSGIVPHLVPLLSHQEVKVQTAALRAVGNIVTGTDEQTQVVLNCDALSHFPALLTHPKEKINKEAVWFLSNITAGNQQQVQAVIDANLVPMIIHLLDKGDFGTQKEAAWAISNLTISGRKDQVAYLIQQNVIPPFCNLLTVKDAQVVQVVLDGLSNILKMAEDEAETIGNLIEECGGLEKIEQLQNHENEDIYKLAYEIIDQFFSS
# protocol summary: FP displacement assay, KPNA4 ARM minor pocket
# Assay type: binding
# condition summary: minor pocket probe FITC-NCOR2 5 nM, 50 mM sodium phosphate pH 7.4, room temperature, at least three technical replicates, read-out: KD values ± SEM
pKd: −log10 of the molar value. Non-standard residues stand in square brackets, D forms with d. Residues, ends and D or L forms follow the SMILES beside them. pS = N[C@@H](COP(=O)(O)O)C(=O)O
measurement type: pKd

# compound, value measured
rows = [
    ("CC(=O)NCC(=O)N[C@@H](C)C(=O)N[C@@H](COP(=O)(O)O)C(=O)N1CCC[C@H]1C(=O)N[C@@H](C)C(=O)N[C@@H](CC(C)C)C(=O)N[C@@H](CCCCN)C(=O)N[C@@H](CCCNC(=N)N)C(=O)N[C@@H](CO)C(=O)N[C@@H](Cc1c[nH]cn1)C(=O)N[C@@H](CO)C(=O)N[C@@H](CC(=O)O)C(=O)N[C@@H](CO)C(=O)N[C@@H](Cc1ccc(O)cc1)C(N)=O [CDC25A114–125 pS] (Ac-GA[pS]PALKRSHSDSY-NH2)", 5.55),
    ("CC(=O)NCC(=O)N[C@@H](C)C(=O)N[C@@H](CCC(=O)O)C(=O)N1CCC[C@H]1C(=O)N[C@@H](C)C(=O)N[C@@H](CC(C)C)C(=O)N[C@@H](CCCCN)C(=O)N[C@@H](CCCNC(=N)N)C(=O)N[C@@H](CO)C(=O)N[C@@H](Cc1c[nH]cn1)C(=O)N[C@@H](CO)C(=O)N[C@@H](CC(=O)O)C(=O)N[C@@H](CO)C(=O)N[C@@H](Cc1ccc(O)cc1)C(N)=O [CDC25A114–125 E] (Ac-GAEPALKRSHSDSY-NH2)", 5.64),
    ("CC(=O)N[C@@H](CC(N)=O)C(=O)N[C@@H](Cc1ccc(O)cc1)C(=O)N[C@@H](C)C(=O)N1CCC[C@H]1C(=O)N1CCC[C@H]1C(=O)N[C@H](C(=O)N[C@@H](CCCCN)C(=O)N[C@@H](CCCNC(=N)N)C(=O)N[C@@H](CCC(=O)O)C(=O)N[C@@H](CCCNC(=N)N)C(=O)N[C@@H](CCC(=O)O)C(=O)N[C@@H](CO)C(=O)N[C@@H](CO)C(=O)N[C@@H](CC(C)C)C(=O)N[C@H](C(=O)N[C@@H](CCC(N)=O)C(N)=O)[C@@H](C)O)C(C)C [RANBP3_114–129 E (p + 5)] (Ac-NYAPPVKRERESSLTQ-NH2)", 4.21),
]
